- Test system: OVCAR-4 ovarian
- assay-notes: NCI tumour cell line growth inhibition, 48 h
observable: TGI (µM)

# compound, assayed-target, limit-qualifier, numeric-value
rows = [
    ("COc1ccc(/C(Cl)=C(\\c2ccc(OCCN(C)C)cc2)c2ccc(OC(=O)C(C)(C)C)cc2)cc1", "OVCAR-4 ovarian", "=", 26.9),
    ("CC(C)CC(Nc1c(O)ccc2ccccc12)C(=O)O (stereo not given)", "OVCAR-4 ovarian", ">", 100),
    ("CN1CCN(Cc2ccc(NC(=O)c3cncc(C#Cc4cncc5nccnc45)c3)cc2C(F)(F)F)CC1", "OVCAR-4 ovarian", "=", 12),
    ("C#CC1(O)c2ccccc2C(=O)c2ccccc21", "OVCAR-4 ovarian", ">", 100),
    ("COc1cc(Nc2nnc3n2S(=O)(=O)c2cc(C)c(Cl)cc2S3)cc(OC)c1", "OVCAR-4 ovarian", "=", 24.4),
]

###

- Tested on: HT29 colon
- assay-notes: NCI tumour cell line growth inhibition, 48 h

# compound, units-of-measure, limit-qualifier, TGI
rows = [
    ("O=C1NC(=O)/C(=C/c2ccc(S(=O)(=O)N/N=C\\C(O)C(O)C(O)C(O)CO)cc2)N1 (stereo not given)", "µM", ">", 100),
    ("CN(C)c1ccc(-c2ccc(N(C)C)c3n[se]nc23)c2n[se]nc12", "µM", ">", 100),
    ("CN1CCN(c2nc(NCCCNc3ccnc4cc(Cl)ccc34)c3ccccc3n2)CC1", "µM", "=", 9.87),
    ("COc1cc(S(=O)(=O)Nc2ccc(-c3csc(N4C(=O)C(Cl)C4c4ccccc4)n3)cc2)ccc1Cl (stereo not given)", "µM", ">", 100),
    ("CCOC(=O)C1=C(C)N(NC(N)=O)C(C)(O)C12CCOC2=O (stereo not given)", "µM", ">", 100),
    ("CC(=O)C1=C(C)N(C)C2(O)C=CC(=O)C3=C(O)c4ccccc4C(=O)C312 (stereo not given)", "µM", ">", 100),
    ("CC(C)(CCCCC(C)(C)C1NC(=O)N1)C1NC(=O)N1", "µM", ">", 10),
    ("CCOC(=O)c1c(C)nc2c(c1N)CC(=O)N2CCc1ccccc1", "µM", "=", 14.5),
    ("NCCOc1ccccc1/C=C1\\c2ccccc2-c2ccc([N+](=O)[O-])cc21", "µM", "=", 2.84),
    ("O=S1(=O)CS(=O)(=O)OCCO1", "µM", "=", 347),
]

###

- Test system: SF-539 CNS
- assay-notes: NCI tumour cell line growth inhibition, 48 h
TGI by entry:

# smiles-repr, TGI
measured = [
    ("CCCNC(=O)c1ccc(Cl)cc1Cl", "> 100 µM"),
    ("O/N=C(\\CC(O)(C(F)(F)F)C(F)(F)F)c1cccc(Cl)c1", "85.9 µM"),
    ("Cc1ccc(NC(=S)SCCC(=O)O)cc1", "> 100 µM"),
    ("COc1cc(N2CCN(C(C)C)CC2)ccc1Nc1nc(Nc2cccc(F)c2C(=O)O)c2cc[nH]c2n1", "> 25 µM"),
    ("O=[N+]([O-])c1cc(Cl)ccc1OCc1ccccc1", "> 100 µM"),
    ("CNS(=O)(=O)NN(C)S(=O)(=O)c1ccc2ccccc2c1", "> 100 µM"),
    ("O=C1C(=O)c2ccccc2C(O)=C1CCCc1ccc(C2CCCCCC2)cc1", "> 74.7 µM"),
    ("O=c1c2cc(Cl)ccc2[nH]c2cc(O)cc(O)c12", "> 10 µM"),
]

###

- Tested on: M14 melanoma
- assay-notes: NCI tumour cell line growth inhibition, 48 h
TGI values, listed per item

# compound, limit-qualifier, TGI (µM)
data = [
    ("CCCCNC(=O)c1cc(NCc2cc(O)ccc2O)ccc1O", "=", 43.7),
    ("CCCCOCc1cc(CN2CCN(C)CC2)c(O)c2ncccc12", "=", 90),
    ("NC(=O)N/N=C(/Cc1nc2ccc(C(=O)c3ccccc3)cc2[nH]c1=O)C(=O)Nc1ccc(C(F)(F)F)cc1[N+](=O)[O-]", ">", 100),
    ("CC1(C)C=N[N+]2(C)C3C=CC(CC3)C12 (stereo not given)", ">", 100),
    ("CC(=O)[CH-]C(=O)c1ccccc1.CC(=O)[CH-]C(=O)c1ccccc1.Cl.[O-]c1ccccn1.[O-]c1ccccn1.[Ti+4]", ">", 100),
]

###

Recorded TGI, one value per entry.
- Test system: SNB-78 CNS
- assay-notes: NCI tumour cell line growth inhibition, 48 h

# molecule, units-of-measure, limit-qualifier, TGI
records = [
    ("CCCCOCc1cc(CN2CCN(C)CC2)c(O)c2ncccc12", "µM", ">", 100),
    ("CN[C@@H](C)[C@H](N)c1ccccc1", "µM", ">", 100),
    ("CC1(C)C=N[N+]2(C)C3C=CC(CC3)C12 (centres undefined)", "µM", ">", 100),
    ("CCOC(=O)C1=C(C)N(NC(N)=O)C(C)(O)C12CCOC2=O (centres undefined)", "µM", "=", 34.5),
    ("O=C(CC1(O)C(=O)Nc2ccccc21)c1ccc(O)cc1 (centres undefined)", "µM", ">", 100),
    ("C/C(=N\\N=C(\\[Se])N(C)C)c1ccccn1", "µM", "=", 15.9),
    ("CC1(C)C(=O)/C=C\\C(=O)C(C)(C)C(=O)/C=C\\C(=O)C(C)(C)C(=O)/C=C\\C(=O)C(C)(C)C(=O)/C=C\\C1=O", "µM", "=", 50),
    ("O=c1c(NO)c([N+](=O)[O-])cnn1-c1ccccc1", "µM", "=", 39.2),
    ("CC1=C(Cl)C=CP(=O)(OC(C)C)C1 (centres undefined)", "µM", ">", 100),
    ("O=C(Nc1cc(Cl)cc(Cl)c1)/C(Cc1nc2ccccc2[nH]c1=O)=N/NC(=O)c1ccncc1", "µM", ">", 100),
    ("CSc1nc(NC2OC(COC(C)=O)C(OC(C)=O)C(OC(C)=O)C2OC(C)=O)c(-c2csc(N)n2)c(=O)n1C (centres undefined)", "µM", "=", 76.8),
    ("COc1ccc2c(c1)CC1c3c(ccc(OC)c3O)CC2N1C (centres undefined)", "µM", "=", 97),
    ("C=C1C2CC(OC(C)=O)C3(C)C(c4ccoc4)OC(=O)[C@@H](O)[C@]13OC1C[C@H](OC(C)=O)C(C)(C)[C@H](CC(=O)OC)[C@]12C (some centres undefined)", "µM", ">", 100),
    ("Cc1ccc(-c2cc(=O)c3cc(C)c(C)c(C(=O)O)c3o2)cc1N", "µM", ">", 100),
]

###

Quick reference: TGI of the listed items.
- System: HCT-116 colon
- assay-notes: NCI tumour cell line growth inhibition, 48 h
observable: TGI

# compound, assayed-target, observable, result
data = [
    ("O=C(NC(Nc1ccc(F)cc1)(C(F)(F)F)C(F)(F)F)C(C(F)(F)F)C(F)(F)F", "HCT-116 colon", "TGI", "> 100 µM"),
    ("O=C1c2ccccc2CC12Cc1ccccc1C2", "HCT-116 colon", "TGI", "> 100 µM"),
    ("O=c1c(NO)c([N+](=O)[O-])cnn1-c1ccccc1", "HCT-116 colon", "TGI", "6.25 µM"),
    ("O=c1oc2ccc(Cl)cc2cc1-c1cn2ccccc2n1", "HCT-116 colon", "TGI", "45.2 µM"),
    ("O=C(O)CCc1c2ccc(=O)c(O)c-2oc2c(O)c(O)ccc12", "HCT-116 colon", "TGI", "59.5 µM"),
    ("CC(C)(C)OC/C=C1\\C(=O)O[C@H]2C[C@@H](O[Si](C)(C)C(C)(C)C)C[C@@H]12", "HCT-116 colon", "TGI", "> 100 µM"),
    ("CCCCN[C@H]1C2C3CC4C5CC(C42)C1(C)C53 (some centres undefined)", "HCT-116 colon", "TGI", "> 100 µM"),
    ("Cc1ncc([N+](=O)[O-])n1CCNCCCn1ccnc1[N+](=O)[O-]", "HCT-116 colon", "TGI", "> 100 µM"),
    ("CCOC(=O)c1oc2ccc([N+](=O)[O-])c3c2c1CCC3", "HCT-116 colon", "TGI", "> 100 µM"),
    ("O=C(NCCN1CCCCC1)c1ccc(I)cc1", "HCT-116 colon", "TGI", "> 100 µM"),
    ("Cc1nc2ccc(NC3OC(CO)C(O)C(O)C3O)cc2c(=O)n1-c1ccccc1 (centres undefined)", "HCT-116 colon", "TGI", "> 100 µM"),
    ("CCOC(=O)CCC(NC(=O)OCc1ccccc1)C(=O)NC(CCC(=O)OCC)C(=O)NNC(=O)OC(C)(C)C (centres undefined)", "HCT-116 colon", "TGI", "> 100 µM"),
    ("Cc1cc(C(=O)NC(CCC(=O)O)C(=O)O)sc1CCC1CNc2nc(N)[nH]c(=O)c2C1 (centres undefined)", "HCT-116 colon", "TGI", "> 100 µM"),
    ("CC(=O)[CH-]C(=O)c1ccccc1.CC(=O)[CH-]C(=O)c1ccccc1.Cl.[O-]c1ccccn1.[O-]c1ccccn1.[Ti+4]", "HCT-116 colon", "TGI", "> 100 µM"),
    ("NCCSCc1ccccc1Cl", "HCT-116 colon", "TGI", "> 100 µM"),
    ("CCN(CC)/[N+]([O-])=N/OCOC(C)=O", "HCT-116 colon", "TGI", "> 100 µM"),
    ("COc1cc(N2CCN(C(C)C)CC2)ccc1Nc1nc(Nc2cccc(F)c2C(=O)O)c2cc[nH]c2n1", "HCT-116 colon", "TGI", "> 25 µM"),
    ("COc1ccc(-c2cc(-c3cc(Cl)cc(Br)c3O)[nH]c(=O)n2)cc1", "HCT-116 colon", "TGI", "24.5 µM"),
    ("O=S(=O)([O-])[O-].[Cl-].[NH2-].[NH2-].[NH2-].[NH2-].[Ru+3].c1ccncc1", "HCT-116 colon", "TGI", "> 100 µM"),
    ("O=c1c(Br)cc2c(-c3ccccc3)c3cc(Br)c(O)c(Br)c3oc-2c1Br", "HCT-116 colon", "TGI", "> 100 µM"),
    ("Cc1nn2c(C(=O)N/N=C/c3ccc([N+](=O)[O-])cc3)c(C)nc2s1", "HCT-116 colon", "TGI", "> 100 µM"),
    ("NC(Cc1ccc(S(=O)(=O)O)cc1)C(=O)NC(Cc1ccc(S(=O)(=O)O)cc1)C(=O)NC(Cc1ccc(S(=O)(=O)O)cc1)C(=O)O (centres undefined)", "HCT-116 colon", "TGI", "> 100 µM"),
    ("C=C(CC(=O)O)C(=O)O (tested in a mixture with another compound)", "HCT-116 colon", "TGI", "> 50 µg/mL"),
    ("N#Cc1c(Cl)nc2ccccc2c1N=[N+]=[N-]", "HCT-116 colon", "TGI", "3.06 µM"),
    ("Cc1cccc(N2C(=O)C(=O)C(c3nc4ccccc4s3)/C(=N/NC(=S)NN)C2=O)c1C (centres undefined)", "HCT-116 colon", "TGI", "> 100 µM"),
    ("CC(C)n1nc(-c2ccc3oc(N)nc3c2)c2c(N)ncnc21", "HCT-116 colon", "TGI", "15 µM"),
    ("Cc1[nH]nc2c1N=C(c1ccccc1F)c1cc(C(N)=O)ccc1N2", "HCT-116 colon", "TGI", "> 25 µM"),
    ("C[CH2][Ge]([CH2]C)([CH2]C)[O]C(=O)CCC(=O)[O][Ge]([CH2]C)([CH2]C)[CH2]C", "HCT-116 colon", "TGI", "> 100 µM"),
    ("CN[C@@H](C)[C@H](N)c1ccccc1", "HCT-116 colon", "TGI", "> 100 µM"),
    ("C=C1C2CC(OC(C)=O)C3(C)C(c4ccoc4)OC(=O)[C@@H](O)[C@]13OC1C[C@H](OC(C)=O)C(C)(C)[C@H](CC(=O)OC)[C@]12C (some centres undefined)", "HCT-116 colon", "TGI", "> 100 µM"),
    ("Nc1c(N2CCOCC2)c(=O)nc2[nH]/c(=C\\c3ccccc3)c(=O)n12", "HCT-116 colon", "TGI", "> 100 µM"),
    ("CC(=O)ON1C(=O)c2cccc3cccc(c23)C1=O", "HCT-116 colon", "TGI", "41.7 µM"),
    ("O=C(CC(=O)N1N=C(N(c2ccccc2)c2ccccc2)CC1c1ccccc1)Nc1ccc(Cl)cc1 (centres undefined)", "HCT-116 colon", "TGI", "> 100 µM"),
    ("C=CC/C(=C\\COP(=O)(OCc1ccc([N+](=O)[O-])o1)N(C)CCCCCl)CC/C=C(\\C)CCC=C(C)C (centres undefined)", "HCT-116 colon", "TGI", "18 µM"),
    ("C=C(C)C(O)C(O)C[C@@H](C)C1CC[C@]23C[C@]12CCC1[C@@]2(C)CCC(OC(C)=O)C(C)(C)C2CC(OC2OC(CO)C(O)C(O)C2O)[C@]13C (some centres undefined)", "HCT-116 colon", "TGI", "29.5 µM"),
    ("CCCCNC(=O)Oc1ccc(/C(=C(/C)Cc2ccc(OC)cc2)c2ccc(OCCN3CCCC3)cc2)cc1", "HCT-116 colon", "TGI", "2.98 µM"),
    ("CCOC(=O)c1nc2ccccc2nc1Oc1cc(OC)c(OC)c(OC)c1", "HCT-116 colon", "TGI", "> 100 µM"),
    ("CN1CCN(c2nc(NCCCNc3ccnc4cc(Cl)ccc34)c3ccccc3n2)CC1", "HCT-116 colon", "TGI", "12.1 µM"),
    ("CCOC(=O)[C@H]1Nc2ccc([N+](=O)[O-])cc2C2c3ccccc3CC21 (some centres undefined)", "HCT-116 colon", "TGI", "37.9 µM"),
]
